pIC50: −log10 of the molar value.
The listing below reports pIC50 for compounds tested on UniProtKB P49841.
REPORTED_ENDPOINT: pIC50

>>> df
                                   compound  reported_measurement
0  O=C1C[C@@H](C(F)(F)F)CC2=C1C1(CCOCC1)C1=C(N=NC1)N2          6.00 to 7.00
1  CC[C@]1(c2cccc(-c3ccnn3C)c2)C2=CN=NC2NC2=C1C(=O)NC1(CCOCC1)C2 (some centres not stated)          6.00 to 7.00
2  CC[C@]1(c2cccc(-c3cnn4c3CCCC4)c2)C2=C(CC(C)(C)NC2=O)NC2N=NC(C)=C21 (some centres not stated)          5.30 to 6.00
3  CC[C@@]1(c2ccccc2)C2=C(N=NC2)NC2=C1C(=O)[C@@H]1CC[C@H]2C1          6.00 to 7.00
4  CC1(C)CC(=O)C2=C(C1)NC1N=NC=C1[C@@]21CCCc2c(-c3ccncc3)cccc21 (some centres not stated)                < 5.30
5  CC1CC(=O)C2=C(C1)NC1=C(CN=N1)C21CCOCC1 (configuration not stated)          6.00 to 7.00
6  CC[C@@]1(c2cccc(-c3c(C)nnn3C)c2)C2=CN=NC2NC2=C1C(=O)CC(C)(C)C2 (some centres not stated)          5.30 to 6.00

---

TEST_SYSTEM: Glycogen synthase kinase-3 beta (Homo sapiens)
Sequence (P49841 whole entry): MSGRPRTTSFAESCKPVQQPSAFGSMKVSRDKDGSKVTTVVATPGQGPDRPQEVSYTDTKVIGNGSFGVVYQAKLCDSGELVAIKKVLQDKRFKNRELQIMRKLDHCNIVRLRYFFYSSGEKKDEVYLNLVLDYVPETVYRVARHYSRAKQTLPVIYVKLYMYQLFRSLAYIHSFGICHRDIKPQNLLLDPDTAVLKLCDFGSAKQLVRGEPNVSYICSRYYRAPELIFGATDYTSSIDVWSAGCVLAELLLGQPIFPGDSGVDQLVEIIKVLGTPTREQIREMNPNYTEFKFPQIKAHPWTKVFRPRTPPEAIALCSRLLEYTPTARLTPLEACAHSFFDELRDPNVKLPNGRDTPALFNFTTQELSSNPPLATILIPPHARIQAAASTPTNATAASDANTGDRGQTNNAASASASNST
REPORTED_ENDPOINT: IC50

In [3]: df
Out[3]:
                                    compound  reported_endpoint  reported_measurement
 0  CC1(C)CC(=O)C2=C(C1)NC1=C(CN=N1)C21CN(C(=O)OCc2ccccc2)C1               IC50       1000 to 5000 nM
 1  CC1(C)CC(=O)C2=C(C1)NC1=C(CN=N1)[C@@]21CO[C@H](c2ccccc2)C1               IC50        100 to 1000 nM
 2  CC[C@@]1(c2cccc(N3CCCCC3)c2)C2=CN=NC2NC2=C1C(=O)CC(C)(C)C2 (stereo partly drawn)               IC50        100 to 1000 nM
 3  CC(C)C(=O)N1CC2(C1)CC1(CO2)C2=C(N=NC2)NC2=C1C(=O)CC(C)(C)C2 (stereo not drawn)               IC50        100 to 1000 nM
 4  CC[C@]1(c2cccc(C(F)(F)F)c2)C2=C(CC(C)(C)CC2=O)NC2N=NC(Br)=C21 (stereo partly drawn)               IC50        100 to 1000 nM
 5  CC[C@]1(c2cccc(C(F)(F)F)c2)C2=C(N=NC2)NC2=C1C(=O)N(Cc1ccccc1)[C@H]2C               IC50        100 to 1000 nM
 6  CCN(c1cccc([C@@]2(CC)C3=CN=NC3NC3=C2C(=O)CC(C)(C)C3)c1)c1ncccn1 (stereo partly drawn)               IC50        100 to 1000 nM
 7  CC[C@]1(c2cccc(N3CCCC3)c2)C2=CN=NC2NC2=C1C(=O)CC(C)(C)C2 (stereo partly drawn)               IC50             > 5000 nM
 8  CC[C@@]1(c2cccc(-c3ccccc3)c2)C2=CN=NC2NC2=C1C(=O)CC(C)(C)C2 (stereo partly drawn)               IC50        100 to 1000 nM
 9  CCC1(c2cccc(S(=O)(=O)C(C)C)c2)C2=CN=NC2NC2=C1C(=O)CC(C)(C)C2 (stereo not drawn)               IC50              < 100 nM
10  CCC1(c2cccc(Cl)c2)C2=C(CC(C)(C)CC2=O)NC2N=NC(Br)=C21 (stereo not drawn)               IC50              < 100 nM
11  CC1(C)CC(=O)C2=C(C1)NC1=C(CN=N1)C21COC2(CN(C(=O)C(C)(C)C)C2)C1 (stereo not drawn)               IC50              < 100 nM
12  CC[C@@]1(c2cccc(-c3ccnc(C)c3)c2)C2=C(N=NC2)NC2=C1C[C@@H]1CC[C@H]2C1               IC50             > 5000 nM
